- System: BT-549 breast
- assay_notes: NCI tumour cell line growth inhibition, 48 h
value_kind: TGI

[[record]]
molecule = "Cc1c(C)c(CC(=O)N2CC2)c(C)c(C)c1CC(=O)N1CC1"
value_kind = "TGI"
experimental_value = "51.4 µM"

[[record]]
molecule = "COc1cc2nc(-c3ccc(C(F)(F)F)cc3)cc(OCCCN3CCCC3)c2cc1OC"
value_kind = "TGI"
experimental_value = "4.95 µM"

[[record]]
molecule = "COc1ccc2c(c1)c(=O)c1c(NCCNCCO)ccc3c(=O)n(CCN(C)C)c(=O)n2c31"
value_kind = "TGI"
experimental_value = "2.49 µM"

[[record]]
molecule = "CCOC(=O)c1c(SCCN2CCOCC2)n(-c2ccccc2)c(=S)n(-c2ccccc2)c1=O"
value_kind = "TGI"
experimental_value = "> 100 µM"

[[record]]
molecule = "CC1(C)N=C2C(=O)c3c([nH]c4ccccc34)[C@]3(C)CCC1CC23 (stereo not given in full)"
value_kind = "TGI"
experimental_value = "> 6.25 µM"


All figures here come from PubChem BioAssay (NCI).
